- subject.of.test: T1, human IL-23R (hIL-23R), custom construct with C-terminal avi and his tags, biotinylated (human, UniProt Q5VWK5 24-355, limits assumed, enzymatically biotinylated via the avi-tag)
- T1 construct: immobilized on streptavidin tips in BLI, labeled target in FACS; also called human IL-23 receptor
- T1 sequence (looked up): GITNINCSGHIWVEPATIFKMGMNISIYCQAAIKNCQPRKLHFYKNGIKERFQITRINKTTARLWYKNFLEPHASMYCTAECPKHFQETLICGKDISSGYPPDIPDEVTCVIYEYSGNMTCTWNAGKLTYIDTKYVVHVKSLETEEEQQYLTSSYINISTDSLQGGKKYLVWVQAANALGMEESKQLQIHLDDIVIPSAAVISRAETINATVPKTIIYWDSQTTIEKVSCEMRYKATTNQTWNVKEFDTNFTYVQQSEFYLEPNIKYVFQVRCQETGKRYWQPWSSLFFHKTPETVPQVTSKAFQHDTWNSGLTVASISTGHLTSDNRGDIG
- assay.remarks: biolayer interferometry titration, biotinylated hIL-23R immobilised on streptavidin tips, 1:1 fit
reported.endpoint: kon (M⁻¹ s⁻¹)

The following binders have reported results that may help.
binder	measured.value
B06 (designed binder) NLWVIFYLLNTIHKRTGDPTAKKLIKALDEAMKKGDEKATKELAKKALKYIRS	350000
A08 (designed binder) MEEEKYVRELVKKYYEKKLSQPEAVEEIRKYARKKGLEAWKLVWAFMELVKRNI	770000
B08 (designed binder) NLWQIFYVLNTIYKRTGDPTAKKLNKALREALKKHDEKATKELAKKATKYIRS	990000
B03 (designed binder) NLWQIFYILNTIHKRTGDPTAKKLPKALREAMKKGDEKAMKELAKKALKYIRS	400000
A03 (designed binder) MEEEKYVRELVKKYYEGKLSQPEAVEEIRKYARKKGLEAWKLIWAFMQLVKRDI	980000

(I) A05dslf01 (designed binder, E. coli, purified) MEEEKCVREQCKKYYEKKLSQPEAVEIIRKCARKKGLEAWKLIWAFMQCVKRDIHHHHHH
(II) A03dslf04 (designed binder, E. coli, purified) MEEEKCVRELCKKYYEGKLSQPEAVEEIRKCARKKGLEAWKLIWAFMQCVKRDIHHHHHH
Request: Given I and II , report the one with the higher recorded kon. Indicate your choice by writing its label.
Result: II
(II: 2.6e+06 M⁻¹ s⁻¹, I: 960000 M⁻¹ s⁻¹)

(1) 23R_B (designed binder, purified from E. coli for BLI) NLWQIFYQLSTILKRTGDPTAKKLLKALAEALKKGDEKALKELAKKATKYIRSHHHHHH
(2) A08dslf03 (designed binder, E. coli, purified) MEEEKYVRELCKKYYEKKLSQPEAVEEIRKYARKKGLEAWKLVWAFMECVKRNIHHHHHH
Request: Given 1 and 2 , report the one with the higher recorded kon. Indicate your choice by writing its label.
Result: 2
(2: 1.5e+06 M⁻¹ s⁻¹, 1: 500000 M⁻¹ s⁻¹)
